target_under_test: T1, MAGEB2 peptide … (SEQ ID NO: 1) complexed with HLA-A*02:01 on the cell surface (human)
T1 construct: whole, on cells; also called pMAGE-HLA; MAGEB2 pMHC
experiment: flow cytometry, peptide-loaded T2 cells;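 also: binding of single-chain Fv antibody constructs, raised in XenoMouse, to peptide-pulsed T2 cells measured by flow cytometry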
property_measured: Signal/background
Provide a numeric answer; units are not to be included.

Example results:
binder	property_measured	recorded_value
18089-C9 (scFv, scFv in bacterial lysate, detected with anti-Flag M2) scFv: EVQLLESGPTLVKPTQTLTLTCTFSGFSFTTHKMGVDWIRQPPGKALEWLALIYWNDDKRYSPSLQSRLTITKDTSKNQVVLTMTNMDPVDTATYYCAYRRYNWNYENWFDPWGQGTLVTVSSGGGGSGGGGSGGGGSELQMTQSPSSLSASVGDRVTITCRASQFISSYLNWYQQKPGKAPKLLIYAASSLQSGVPSRFSGRGSGTDFTLTISSLQPEDFATYYCQQSYSTPFTFGPGTKVEIK	Signal/background	39
18182-E1 (scFv, scFv in bacterial lysate, detected with anti-Flag M2) scFv: EVQLLESGGGLVQPGGSLRLSCAASGFTFSSHAMSWVRQAPGKGLEWVSAISGSGGGTYNADSVKGRFTISRDNSKNTLYLQMNSLRAEDTAAYYCVTGKGVHLGFDYWGQGTLVTVSSGGGGSGGGGSGGGGSELVLTQPPSVSVAPGQTARITCGGNNIGSKSVHWYQQKPGQAPVMVVYDDNDRPSGIPERFSGSNSGNTATLTISRVEAGDEADYYCQVWDSSSDHVVFGGGTKLTVL	Signal/background	193

I would be grateful if you could share the reported Signal/background for 18179-G12 (scFv, scFv in bacterial lysate, detected with anti-Flag M2) scFv: EVQLLESGAEVKKPGASVKVSCKASGYTFTRNGLSWVRQAPGQGLEWMGWISGYNGDTNYAQKLQGRGTMTTDTSTSTAYMELRSLRSDDTAVYYCARGRATFDYWGQGTLVTVSSGGGGSGGGGSGGGGSELVMTQSPSSLSASVGDRVTITCRASQGISNYLAWYQQKPGKVPKLLISAASTLQSGVPSRFSGSGSGTDFTLTISSLQPEDVATYYCQKYNSAPFTFGPGTKLEIK .
42

Would you kindly repeat that for 18179-D7 (scFv, scFv in bacterial lysate, detected with anti-Flag M2) scFv: EVQLLESGGGLVQPGGSLRLSCAASGFTFSNAWMSWVRQAPGKGLEWVGRIKGNTYGGTTDYAAPVKGRFTISRDDSKNTLFLQMNSLKTEDTAVYYCTTPSYSGSYYNYFSVMDVWGQGTTVTVSSGGGGSGGGGSGGGGSELVMTQSPSSLSASVGDRVTITCRTSQSISSYLNWYQQKPGRAPKLLIFAASSLQGGVPSRFSGSGSGTDFTLTISSLQPEDFATYYCQQTYSMPFTFGPGTKVDIK ?
281

Would you kindly repeat that for 18182-B5 (scFv, scFv in bacterial lysate, detected with anti-Flag M2) scFv: EVQLLESGGGLVQPGGSLRLSCAASGFTFSSHAMSWVRQAPGKGLEWVSAISGSGGGTYYADSVKGRFTISRDNSKNTLYLQMNSLRAEDTAVYYCATGKGVHLGFDYWGQGTLVTVSSGGGGSGGGGSGGGGSELVLTQPPSVSVAPGQTARITCGGNNIGSKSVHWYQQKPGQAPVLVVYDDNDRPSGIPERFSGSNFGNTATLIISRVEAGDEADYYCQVWDSSSDHVVFGGGTKLTVL ?
560
